Hello, the source for this data is patent US20220339270A1, in case you need it.

# Assayed target: T1, extracellular tau in the form of paired helical filaments (ePHF tau) (UniProt P10636-8 1-441, limits assumed)
# T1 construct: Aggregated, hyperphosphorylated tau preparation; not a single defined polypeptide
# T1 sequence (P10636 other isoform, or with tags, fused parts or gaps limits assumed): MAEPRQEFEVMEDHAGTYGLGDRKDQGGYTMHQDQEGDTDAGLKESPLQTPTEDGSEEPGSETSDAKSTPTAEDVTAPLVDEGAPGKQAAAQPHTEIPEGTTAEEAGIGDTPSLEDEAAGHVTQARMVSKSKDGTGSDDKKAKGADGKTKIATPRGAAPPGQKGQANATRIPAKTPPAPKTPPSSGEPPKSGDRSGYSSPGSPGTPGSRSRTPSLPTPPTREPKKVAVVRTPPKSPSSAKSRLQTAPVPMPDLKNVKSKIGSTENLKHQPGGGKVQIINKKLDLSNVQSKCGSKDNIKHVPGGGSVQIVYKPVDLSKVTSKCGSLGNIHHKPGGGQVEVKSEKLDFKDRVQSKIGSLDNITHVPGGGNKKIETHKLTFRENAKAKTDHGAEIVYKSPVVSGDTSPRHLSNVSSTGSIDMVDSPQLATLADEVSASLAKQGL
# Assay summary: ePHF tau ELISA, ePHF coated; antibody at 55.6 ng/ml; anti-mouse-HRP
Observable: OD450 (OD450)

INSERT INTO results (binder, observable, unit_annotation, experimental_value) VALUES
  ('anti-tau antibody MC1 expressed from viral genome construct MC1HF.P2AL (TAU_ITR73; SEQ ID NO: 2062) (antibody, V domains shown) VH: QVQLQQSGAELMKPGASVKISCKATGYTFSNYWIEWVKQRPGHGLEWIGEILPGSDSIKYNENFKGKATFTADTSSNTAYMQLSSLTSEDSAVYYCARRGNYPDYWGQGTTLTVSS VL: DVVMTQTPLSLPVSLGDQASISCRSSQSLVHSNGNTYLHWYLQKPGQSPKLLIYKVSNRFSGVPDRFSGSGSGTDFTLKISRVEAEDLGVYFCSQSTHVPLTFGAGTKLELKR', 'OD450', 'OD450', 0.4),
  ('anti-tau antibody MC1 expressed from viral genome construct MC1HF.F2AL (TAU_ITR72; SEQ ID NO: 2061) (antibody, V domains shown) VH: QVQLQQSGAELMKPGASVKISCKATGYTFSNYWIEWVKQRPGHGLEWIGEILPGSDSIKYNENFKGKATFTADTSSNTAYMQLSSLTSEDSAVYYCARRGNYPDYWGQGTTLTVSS VL: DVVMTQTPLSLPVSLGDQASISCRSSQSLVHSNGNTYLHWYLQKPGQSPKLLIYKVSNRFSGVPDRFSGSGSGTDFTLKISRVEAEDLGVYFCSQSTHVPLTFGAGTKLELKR', 'OD450', 'OD450', 0.5),
  ('anti-tau antibody MC1 expressed from viral genome construct MC1LF.F2AH (TAU_ITR78; SEQ ID NO: 2067) (antibody, V domains shown) VH: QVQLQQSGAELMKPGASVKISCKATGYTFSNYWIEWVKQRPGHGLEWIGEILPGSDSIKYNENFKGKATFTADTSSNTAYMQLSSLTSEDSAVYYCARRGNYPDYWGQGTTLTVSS VL: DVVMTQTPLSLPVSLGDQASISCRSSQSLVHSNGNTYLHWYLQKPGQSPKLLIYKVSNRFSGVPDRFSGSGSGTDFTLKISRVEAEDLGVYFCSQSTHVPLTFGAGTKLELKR', 'OD450', 'OD450', 0.4);
